The reported numbers originate from ChEMBL document CHEMBL2203036.

# Assayed Target: UniProtKB P34969
# Sequence (P34969 whole entry): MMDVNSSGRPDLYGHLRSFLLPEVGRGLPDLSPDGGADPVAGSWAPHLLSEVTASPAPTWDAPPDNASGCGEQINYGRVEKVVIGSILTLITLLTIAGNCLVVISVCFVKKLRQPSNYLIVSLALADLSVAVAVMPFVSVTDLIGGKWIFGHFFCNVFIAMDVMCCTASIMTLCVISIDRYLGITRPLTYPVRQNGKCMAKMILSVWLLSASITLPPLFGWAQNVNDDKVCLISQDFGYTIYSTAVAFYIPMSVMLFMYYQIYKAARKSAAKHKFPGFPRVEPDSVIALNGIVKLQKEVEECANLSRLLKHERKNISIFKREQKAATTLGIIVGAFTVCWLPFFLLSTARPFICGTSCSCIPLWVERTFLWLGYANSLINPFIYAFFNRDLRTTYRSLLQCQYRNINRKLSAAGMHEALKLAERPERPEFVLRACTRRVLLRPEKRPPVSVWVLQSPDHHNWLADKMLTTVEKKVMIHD
# Assay Explanation: Antagonist activity at human 5HT7 receptor expressed in HEK-CNG cells assessed as effect on cAMP production by fluorescence based assay
# Format: functional, cell-based
Reported Endpoint: pKi
Lab note — pKi values are minus log10 of concentrations in M.

Lookup: pKi lookup needed for Cc1ccc(Sc2ccccc2N2CCNCC2)c(C)c1.Cl , thanks.
Found: 6.35

---

# Assayed Target: Cytochrome P450 2D6 (Homo sapiens, UniProt P10635)
# Sequence (P10635 whole entry): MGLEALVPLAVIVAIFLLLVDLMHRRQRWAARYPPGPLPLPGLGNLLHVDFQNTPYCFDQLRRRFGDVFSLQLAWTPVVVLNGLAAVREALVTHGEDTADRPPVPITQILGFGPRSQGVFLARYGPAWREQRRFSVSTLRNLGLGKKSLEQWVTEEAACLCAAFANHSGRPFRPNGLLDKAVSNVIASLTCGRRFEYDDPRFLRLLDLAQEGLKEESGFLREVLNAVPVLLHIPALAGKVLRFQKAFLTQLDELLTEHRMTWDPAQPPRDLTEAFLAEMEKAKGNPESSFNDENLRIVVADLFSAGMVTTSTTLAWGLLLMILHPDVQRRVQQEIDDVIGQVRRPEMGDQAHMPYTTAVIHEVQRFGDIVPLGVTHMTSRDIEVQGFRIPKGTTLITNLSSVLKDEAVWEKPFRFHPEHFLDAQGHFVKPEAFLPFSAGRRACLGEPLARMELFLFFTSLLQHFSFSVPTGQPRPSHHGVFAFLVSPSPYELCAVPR
# Assay Explanation: Inhibition of human recombinant CYP2D6 using 3-[2-(N,N-diethyl-N-methylamino)ethyl]-7-methoxy- 4-methylcoumarin after 45 mins by fluorescence spectrophotometric analysis
Record form. Attribute: IC50. Fill in for each entry.
// return numeric value only (unit: nM, not printed)

Lookup: Look at this compound and give its reported IC50. Cl.Clc1ccc(Sc2ccccc2N2CCNCC2)cc1
Found: 400

Lookup: Field request: IC50 | item: Cc1ccc(Sc2ccccc2N2CCNCC2)c(C)c1.Cl
Found: 9800

Lookup: Please report the recorded IC50 for Cl.Clc1ccc(Sc2ccccc2N2CCNCC2)c(Cl)c1 .
Found: 900

Lookup: I would be grateful if you could share the reported IC50 for Cc1ccc(Sc2ccccc2N2CCNCC2)c(Cl)c1.Cl .
Found: 1500

Lookup: Data request, read-out IC50, for Cc1ccc(Sc2ccccc2N2CCNCC2)cc1C.Cl
Found: 2800

Lookup: Could you share which IC50 value was measured for Cc1ccc(Sc2ccccc2N2CCNCC2)cc1.Cl ?
Found: 2700
